Numbers sourced from the supplement of paper PMC7411054.

test system: WPMY1-GM130-SQSTM1; experiment: phenotypically active (imaging signature differs from DMSO and reproducible) at any of 0.3-9 uM (binary (1 = active, 0 = inactive)); higher = active; conditions: treatment time: 24 h
Structures can show the parent of a compound that is named as a salt.
Attribute Measured: phenotypically active

Respond only with phenotypically active recorded for O=C(NCCN1CCC(n2c(=O)[nH]c3ccccc32)CC1)c1cc2cc(F)ccc2[nH]1
1 (active)

Respond only with phenotypically active recorded for C[C@H]1[C@H](C)CC[C@]2(C(=O)O[C@@H]3O[C@H](CO[C@@H]4O[C@H](CO)[C@@H](O[C@@H]5O[C@@H](C)[C@H](O)[C@@H](O)[C@H]5O)[C@H](O)[C@H]4O)[C@@H](O)[C@H](O)[C@H]3O)CC[C@]3(C)C(=CC[C@@H]4[C@@]5(C)C[C@@H](O)[C@H](O)[C@@](C)(CO)[C@@H]5CC[C@]43C)[C@H]12 [Asiaticoside]
0 (inactive)

Respond only with phenotypically active recorded for CC(C)(C(=O)O)c1ccc(C(O)CCCN2CCC(C(O)(c3ccccc3)c3ccccc3)CC2)cc1 (configuration not stated) [fexofenadine]
0 (inactive)

Respond only with phenotypically active recorded for CCCc1cc2c(N3CCN(C4=NCC(C)(C)S4)CC3)ncnc2s1 [MI 2 dihydrochloride]
1 (active)

Respond only with phenotypically active recorded for CC/C(=C(/c1ccccc1)c1ccc(OCCN(C)C)cc1)c1ccccc1 [tamoxifen]
1 (active)

Respond only with phenotypically active recorded for C#CCN(C)Cc1ccccc1 [pargyline]
0 (inactive)

Respond only with phenotypically active recorded for S=P(N1CC1)(N1CC1)N1CC1 [thiotepa]
0 (inactive)

Respond only with phenotypically active recorded for O=C(O)c1ccc(O)c2ncccc12
0 (inactive)

Respond only with phenotypically active recorded for O=C1NC(=O)[C@@H](c2cn3c4c(cccc24)CCC3)[C@@H]1c1c[nH]c2ccccc12 [tivantinib]
1 (active)

Respond only with phenotypically active recorded for Clc1ccc(N/N=C(\c2ccccc2)c2ccccn2)nc1
1 (active)

Respond only with phenotypically active recorded for O=C(O)[C@H]1CCCC[C@H]1C(=O)N1CCc2ccccc2[C@H]1CN1C(=O)c2ccccc2C1=O
0 (inactive)

Respond only with phenotypically active recorded for Cc1ccccc1C(OCCN(C)C)c1ccccc1 (configuration not stated) [orphenadrine]
0 (inactive)

Respond only with phenotypically active recorded for COc1cc2ncnc(Nc3cccc(Br)c3)c2cc1OC
1 (active)

Respond only with phenotypically active recorded for C[C@@H]1CN(Cc2ccc(F)cc2)[C@@H](C)CN1C(=O)c1cc2c(C(=O)C(=O)N(C)C)cn(C)c2cc1Cl [SCIO 469 hydrochloride]
0 (inactive)

Respond only with phenotypically active recorded for COc1ccccc1C(=O)Nc1cc2c(cc1N1CCCC1)n(C)c(=O)n2C
1 (active)

Respond only with phenotypically active recorded for N#C/C(=C/c1ccc(-c2cc(Cl)ccc2Cl)o1)C(=O)Nc1cccc2ncccc12
0 (inactive)

Respond only with phenotypically active recorded for O=C1CC(c2ccc(O)cc2)Oc2cc(O)cc(O)c21 (configuration not stated) [Naringenine]
0 (inactive)

###

system: A549-GM130-SQSTM1; experiment: phenotypically active (imaging signature differs from DMSO and reproducible) at any of 0.3-9 uM (binary (1 = active, 0 = inactive)); higher = active; conditions: treatment time: 24 h
Counter-ions that a name gives are not always drawn.
Attribute Measured: phenotypically active
I only need the number, thanks.

Respond only with phenotypically active recorded for CC[C@@H](N)CNc1ccnc(-c2cc(-c3cnn(C)c3)ccc2O)n1
1

Respond only with phenotypically active recorded for CC1=CC(=O)C2=C(C)CC[C@@H]3[C@H](OC(=O)[C@H]3C)[C@@H]12
0

Respond only with phenotypically active recorded for CC(C)N(CCCNC(=O)Nc1ccc(C(C)(C)C)cc1)C[C@H]1O[C@@H](n2cc(Br)c3c(N)ncnc32)[C@H](O)[C@@H]1O
0

Respond only with phenotypically active recorded for CC1(COc2ccc(CC3SC(=O)NC3=O)cc2)CCCCC1 (centres undefined)
0

Respond only with phenotypically active recorded for O=C(CCCCCCC(=O)Nc1cccnc1)NO [Pyroxamide]
1

Respond only with phenotypically active recorded for CC(=O)CCCCn1c(=O)c2c(ncn2C)n(C)c1=O
0

Respond only with phenotypically active recorded for COc1cc(C=O)c([N+](=O)[O-])cc1OC
0

Respond only with phenotypically active recorded for CC(C)[C@H]1CC[C@H](C(=O)N[C@H](Cc2ccccc2)C(=O)O)CC1 [nateglinide]
0

Respond only with phenotypically active recorded for C=C[C@H]1CN2CC[C@H]1C[C@H]2[C@H](O)c1ccnc2ccc(OC)cc12 [Quinine dihydrochloride]
1

###

tested on: WPMY1-TUBA1B-RELA; assay: lowest phenotypically active concentration; higher = less potent; details: treatment time: 24 h
Counter-ions that a name gives are not always drawn.
Attribute Measured: lowest phenotypically active concentration (µM)
The figure you give is taken to be in µM; do not add the unit.

Respond only with lowest phenotypically active concentration recorded for COc1cc2nc(-c3cc(F)ccc3O)nc(N[C@@H]3CNC[C@H]3C(C)(C)O)c2cc1OC
1

Respond only with lowest phenotypically active concentration recorded for CCc1nc(-c2cccc(C)c2)c(-c2ccnc(NC(=O)c3ccccc3)c2)s1
9

Respond only with lowest phenotypically active concentration recorded for COc1ccc(S(=O)(=O)N(C(C)=O)c2ccccc2/C=C/c2cc[n+]([O-])cc2)cc1
1

Respond only with lowest phenotypically active concentration recorded for CC1=C(/C=C/C(C)=C\C=C\C(C)=C\C(=O)O)C(C)(C)CCC1
3

Respond only with lowest phenotypically active concentration recorded for NC(=O)c1sc2c([N+](=O)[O-])cc(C(F)(F)F)cc2[n+]1[O-]
9

Respond only with lowest phenotypically active concentration recorded for CC[C@H](CO)Nc1nc(Nc2cccc(-c3ccccn3)c2)c2ncn(C(C)C)c2n1 [(R)-DRF053 dihydrochloride]
9

Respond only with lowest phenotypically active concentration recorded for CCCCc1oc2ccc(NS(C)(=O)=O)cc2c1C(=O)c1ccc(OCCCN(CCCC)CCCC)cc1
9

###

Record form. Attribute: lowest phenotypically active concentration. Fill in for each entry.
tested on: HepG2-GM130-SQSTM1; assay: lowest phenotypically active concentration; higher = less potent; settings: treatment time: 24 h
Structures can show the parent of a compound that is named as a salt.
The figure you give is taken to be in µM; do not add the unit.

Fill in lowest phenotypically active concentration for COc1cc(N2CCC(N3CCN(C)CC3)CC2)ccc1Nc1ncnc(Nc2ccccc2S(=O)(=O)C(C)C)n1 tested with HepG2-GM130-SQSTM1.
9

Fill in lowest phenotypically active concentration for CNC(=O)c1ccccc1Sc1ccc2c(/C=C/c3ccccn3)n[nH]c2c1 [Axitinib] tested with HepG2-GM130-SQSTM1.
3

Fill in lowest phenotypically active concentration for COc1cc2c(cc1NS(=O)(=O)c1ccc(Br)cc1C)n(C)c(=O)n2C tested with HepG2-GM130-SQSTM1.
9

Fill in lowest phenotypically active concentration for C[C@@H]1COCCN1c1cc(C2(S(C)(=O)=O)CC2)nc(-c2cccc3[nH]ccc23)n1 tested with HepG2-GM130-SQSTM1.
1

Fill in lowest phenotypically active concentration for O=C(c1ccc(C(=O)N2CCC(N3CCCC3)CC2)c(Nc2ccccc2)c1)N1CCC(N2CCCC2)CC1 tested with HepG2-GM130-SQSTM1.
9

Fill in lowest phenotypically active concentration for Cc1ccc(-n2sc3ccccc3c2=O)cc1 tested with HepG2-GM130-SQSTM1.
9

Fill in lowest phenotypically active concentration for COc1cc2c(N3CCN(C(=O)Nc4ccc(OC(C)C)cc4)CC3)ncnc2cc1OCCCN1CCCCC1 [tandutinib] tested with HepG2-GM130-SQSTM1.
9

Fill in lowest phenotypically active concentration for COc1cc2nc(-c3cc(F)ccc3O)nc(N[C@@H]3CNC[C@H]3C(C)(C)O)c2cc1OC tested with HepG2-GM130-SQSTM1.
1

Fill in lowest phenotypically active concentration for CC(C)(C)c1cc(C(=O)/C=C/c2ccc(C(=O)O)cc2)cc(C(C)(C)C)c1 tested with HepG2-GM130-SQSTM1.
9

Fill in lowest phenotypically active concentration for CNC(=C[N+](=O)[O-])NCCSCc1ccc(CN(C)C)o1 [ranitidine] tested with HepG2-GM130-SQSTM1.
1

Fill in lowest phenotypically active concentration for c1ccc2c(c1)Cc1c(Nc3ccc4c(c3)OCCO4)n[nH]c1-2 tested with HepG2-GM130-SQSTM1.
9

Fill in lowest phenotypically active concentration for Cc1ccc(Nc2nccc(N(C)c3ccc4c(C)n(C)nc4c3)n2)cc1S(N)(=O)=O [pazopanib] tested with HepG2-GM130-SQSTM1.
3

Fill in lowest phenotypically active concentration for Nc1ccc(-c2cccc3c(=O)cc(N4CCOCC4)oc23)cc1 tested with HepG2-GM130-SQSTM1.
3

Fill in lowest phenotypically active concentration for CN(C)C(=O)C(CCN1CCC(O)(c2ccc(Cl)cc2)CC1)(c1ccccc1)c1ccccc1 [loperamide] tested with HepG2-GM130-SQSTM1.
9

Fill in lowest phenotypically active concentration for Cc1cc(CS(=O)(=O)c2ccccc2)cc(OCc2ccc(CN3CCC[C@@H]3CO)cc2)c1 [PF 543 hydrochloride] tested with HepG2-GM130-SQSTM1.
9

Fill in lowest phenotypically active concentration for CC1(C)CC(=O)c2c(S(C)(=O)=O)sc(Cl)c2C1 tested with HepG2-GM130-SQSTM1.
1
